For each record, write down the corresponding EC50.
Target: Voltage-dependent T-type calcium channel subunit alpha-1H (Homo sapiens);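 also: channel activity triggered by adding a high calcium stimulation buffer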
Sequence (O95180 whole entry): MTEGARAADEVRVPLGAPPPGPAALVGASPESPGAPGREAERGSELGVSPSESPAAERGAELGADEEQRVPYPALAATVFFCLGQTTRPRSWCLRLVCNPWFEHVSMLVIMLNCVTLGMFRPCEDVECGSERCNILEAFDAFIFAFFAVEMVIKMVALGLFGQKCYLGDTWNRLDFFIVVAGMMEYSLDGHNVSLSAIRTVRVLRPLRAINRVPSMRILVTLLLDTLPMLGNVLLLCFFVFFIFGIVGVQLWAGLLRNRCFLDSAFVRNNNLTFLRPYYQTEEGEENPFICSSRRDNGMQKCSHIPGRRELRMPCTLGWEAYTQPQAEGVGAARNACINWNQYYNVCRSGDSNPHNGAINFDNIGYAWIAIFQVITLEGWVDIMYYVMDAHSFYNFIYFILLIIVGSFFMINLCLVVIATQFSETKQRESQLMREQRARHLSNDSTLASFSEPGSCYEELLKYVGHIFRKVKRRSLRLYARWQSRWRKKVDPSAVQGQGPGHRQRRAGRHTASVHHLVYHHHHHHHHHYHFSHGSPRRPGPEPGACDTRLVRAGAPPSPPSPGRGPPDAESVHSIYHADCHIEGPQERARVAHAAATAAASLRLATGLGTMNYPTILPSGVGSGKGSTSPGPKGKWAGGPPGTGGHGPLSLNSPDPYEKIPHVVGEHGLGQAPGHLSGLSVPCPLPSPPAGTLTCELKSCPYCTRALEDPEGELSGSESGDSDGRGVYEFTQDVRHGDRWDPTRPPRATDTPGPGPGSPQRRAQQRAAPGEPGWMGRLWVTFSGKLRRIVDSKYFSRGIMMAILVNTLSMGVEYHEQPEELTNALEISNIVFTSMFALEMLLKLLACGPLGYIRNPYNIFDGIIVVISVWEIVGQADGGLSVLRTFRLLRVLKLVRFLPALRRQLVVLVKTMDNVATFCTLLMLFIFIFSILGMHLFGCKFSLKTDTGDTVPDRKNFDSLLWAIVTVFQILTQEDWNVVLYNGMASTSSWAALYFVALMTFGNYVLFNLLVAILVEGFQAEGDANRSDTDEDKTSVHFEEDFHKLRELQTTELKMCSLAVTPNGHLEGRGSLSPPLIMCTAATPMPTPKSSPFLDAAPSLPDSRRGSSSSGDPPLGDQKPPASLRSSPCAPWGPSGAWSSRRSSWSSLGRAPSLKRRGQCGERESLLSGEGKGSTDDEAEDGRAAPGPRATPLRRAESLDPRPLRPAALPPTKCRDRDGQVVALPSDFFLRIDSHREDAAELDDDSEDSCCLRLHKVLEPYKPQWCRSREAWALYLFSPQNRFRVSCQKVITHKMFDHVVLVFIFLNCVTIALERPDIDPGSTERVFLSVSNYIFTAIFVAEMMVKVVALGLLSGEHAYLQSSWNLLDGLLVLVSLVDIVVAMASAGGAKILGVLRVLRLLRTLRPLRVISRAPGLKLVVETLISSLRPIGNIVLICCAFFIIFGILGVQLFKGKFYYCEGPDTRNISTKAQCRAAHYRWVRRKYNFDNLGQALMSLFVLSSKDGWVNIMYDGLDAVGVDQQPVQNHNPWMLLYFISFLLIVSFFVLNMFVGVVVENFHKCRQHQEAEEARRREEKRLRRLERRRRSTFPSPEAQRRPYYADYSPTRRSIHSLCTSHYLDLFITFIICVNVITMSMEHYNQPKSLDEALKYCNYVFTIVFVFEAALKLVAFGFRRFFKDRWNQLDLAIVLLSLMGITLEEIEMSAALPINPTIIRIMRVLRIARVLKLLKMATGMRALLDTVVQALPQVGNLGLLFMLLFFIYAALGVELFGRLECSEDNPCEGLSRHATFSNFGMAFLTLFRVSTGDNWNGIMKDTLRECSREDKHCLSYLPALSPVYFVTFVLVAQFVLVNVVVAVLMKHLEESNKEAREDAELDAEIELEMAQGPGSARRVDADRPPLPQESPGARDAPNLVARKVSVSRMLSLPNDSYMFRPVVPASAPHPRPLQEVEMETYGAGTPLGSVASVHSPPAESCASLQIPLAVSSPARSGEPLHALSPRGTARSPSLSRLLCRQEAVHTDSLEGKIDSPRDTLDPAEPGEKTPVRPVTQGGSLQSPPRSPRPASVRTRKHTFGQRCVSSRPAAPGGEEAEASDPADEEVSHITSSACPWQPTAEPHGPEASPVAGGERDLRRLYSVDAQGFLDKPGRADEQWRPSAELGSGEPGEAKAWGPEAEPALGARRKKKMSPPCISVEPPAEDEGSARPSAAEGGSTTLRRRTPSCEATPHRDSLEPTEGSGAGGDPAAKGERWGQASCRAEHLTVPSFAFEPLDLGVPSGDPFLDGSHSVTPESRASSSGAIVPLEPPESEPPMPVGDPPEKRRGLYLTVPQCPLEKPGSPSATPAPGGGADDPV
Format: functional
The source made the active and inactive calls.

Please look up its EC50: O=C(CCC1COc2ccccc2O1)NCC1COc2ccccc2O1 (centres undefined) 1.77 µM (active)

Please look up its EC50: O=P(Nc1ccccc1Cl)(c1ccccc1)c1nc2c(s1)CCCC2 (centres undefined) 5.95 µM (active)

Please look up its EC50: COc1ccc(N2CCN(C(=O)CN(Cc3ccc(Cl)cc3)S(C)(=O)=O)CC2)cc1 11.3 µM (active)

Please look up its EC50: Cc1oc(-c2cccc(Cl)c2)nc1CN1CCC(C(=O)NCc2ccco2)CC1 5.8 µM (active)

---

Molecular target: Estrogen receptor (Homo sapiens, UniProt P03372);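 also: potency for inhibiting coactivator peptide recruitment to the receptor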
Sequence (P03372 whole entry): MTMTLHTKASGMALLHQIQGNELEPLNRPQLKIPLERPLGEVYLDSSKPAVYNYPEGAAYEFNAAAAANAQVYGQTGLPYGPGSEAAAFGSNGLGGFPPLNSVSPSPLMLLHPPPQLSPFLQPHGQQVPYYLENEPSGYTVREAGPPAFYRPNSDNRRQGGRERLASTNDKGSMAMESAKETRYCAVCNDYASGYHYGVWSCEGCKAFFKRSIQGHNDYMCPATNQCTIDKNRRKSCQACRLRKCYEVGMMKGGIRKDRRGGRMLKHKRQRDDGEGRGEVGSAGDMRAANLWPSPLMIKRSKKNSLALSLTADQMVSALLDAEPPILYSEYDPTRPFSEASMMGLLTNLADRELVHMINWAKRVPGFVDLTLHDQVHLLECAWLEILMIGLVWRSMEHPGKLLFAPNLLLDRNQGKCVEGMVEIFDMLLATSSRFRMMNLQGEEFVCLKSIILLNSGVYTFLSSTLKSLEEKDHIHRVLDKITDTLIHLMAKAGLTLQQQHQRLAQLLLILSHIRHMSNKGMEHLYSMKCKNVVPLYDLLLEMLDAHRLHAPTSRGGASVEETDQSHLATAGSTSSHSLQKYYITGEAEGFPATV
Activity calls are given as the source filed them.
MEASURED QUANTITY: IC50

Please look up its IC50: CCn1c(SCC(=O)c2ccc(CNC(C)=O)o2)nnc1-c1cccs1 42.7 µM (not active)

Please look up its IC50: CCOC(=O)c1c(NC(=O)CSc2nnc(CNC(=O)c3ccco3)n2C)sc2c1CCC2 > 50 µM (not active)

Please look up its IC50: CC(=O)OC1CC(C)(C)N(OC(=O)c2ccc(N)cc2)C(C)(C)C1 26.3 µM (active)

Please look up its IC50: CC(=N)/C(C#N)=C(/O)CSc1nnc(Cc2ccccc2F)n1N > 50 µM (not active)

---

For each record, write down the corresponding AC50.
Calls of active or inactive are those of the source.

Request body: readout AC50, system UniProt P10635, query CN1CCN(c2ccnc(-c3ccoc3)n2)CC1 . Return the value. 39.8 µM (inconclusive)

Request body: readout AC50, system UniProt P10635, query CC(=O)O[C@]12CC[N@+]3(C)CCCC[C@@H]3[C-]1Nc1ccccc12 . Return the value. 3.16 µM (inconclusive)

Request body: readout AC50, system UniProt P10635, query NCCCCNS(=O)(=O)c1cccc2c(Cl)cccc12 . Return the value. 39.8 µM (inconclusive)

Request body: readout AC50, system UniProt P10635, query O=C(c1ccc(Cl)c(Cl)c1)c1cc(-c2ccccn2)c(N2CCOCC2)s1 . Return the value. 10 µM (inconclusive)

Request body: readout AC50, system UniProt P10635, query CCc1ccccc1N=C(S)NC1CC2CCC(C1)N2Cc1ccco1 (stereo unspecified) . Return the value. 14.1 µM (inconclusive)

Request body: readout AC50, system UniProt P10635, query CN(C)Cc1cc(C(F)(F)F)ccc1C(O)(c1ccccc1)c1ccccc1 . Return the value. 3.16 µM (inconclusive)

Request body: readout AC50, system UniProt P10635, query FC(F)(F)c1ccccc1-c1cncnc1NCCN1CCOCC1 . Return the value. 15.8 µM (inconclusive)

Request body: readout AC50, system UniProt P10635, query Cc1ccc(S(=O)(=O)N[C@@H](CCc2ccccc2)CC(=O)C(C)(C)C)cc1 . Return the value. 3.16 µM (inconclusive)

Request body: readout AC50, system UniProt P10635, query N#Cc1cccc(-c2cncnc2-n2ccnc2)c1 . Return the value. 39.8 µM (inconclusive)

Request body: readout AC50, system UniProt P10635, query O=C(NNS(=O)(=O)c1ccc(Cl)cc1)C1CCN(Cc2ccccc2)CC1 . Return the value. 1 µM (inconclusive)

Request body: readout AC50, system UniProt P10635, query Cn1c(-c2sc(=S)n(-c3ccccc3)c2N)nc2ccccc21 . Return the value. 1.26 µM (inconclusive)

Request body: readout AC50, system UniProt P10635, query c1ccc(CNc2nc(-c3cccnc3)nc3ccccc23)cc1 . Return the value. 15.8 µM (active)

Request body: readout AC50, system UniProt P10635, query Cc1ccc(CNC(=O)Cn2cncn2)cc1 . Return the value. 17.8 µM (inconclusive)

Request body: readout AC50, system UniProt P10635, query COc1cccc(-c2ccc3ncnc(N4CCN(C)CC4)c3c2)c1 . Return the value. 39.8 µM (inconclusive)

Request body: readout AC50, system UniProt P10635, query OCc1ccc(-c2nn(Cc3ccccc3)c3ccccc23)o1 . Return the value. 39.8 µM (inconclusive)

Request body: readout AC50, system UniProt P10635, query CC1=C(Nc2c(C)cc(O)cc2O)C(=O)C=c2oc3c(c21)C(C)=C(Nc1c(C)cc(O)cc1O)C(=O)C=3 . Return the value. 2.51 µM (inconclusive)

Hello, the source for this data is ChEMBL document CHEMBL1201862, in case you need it.
